system: MCF7; assay: Growth inhibition of human MCF7 cells assessed as growth percentage at 10 uM incubated for 48 hrs by sulforhodamine B assay relative to control; type: functional; conditions: MCF7, 48 h, read-out: Activity
property: growth at 10 µM

Ask: Specify measured growth at 10 µM for CC1=C(C(=O)OCC(C)C)C(c2ccc3c(c2)OCO3)NC(=O)N1 (racemic) .
Reply: 101%

Ask: Specify measured growth at 10 µM for CC(=O)N1C(=S)NC(C)=C(C(=O)OCC(C)C)C1c1ccc2c(c1)OCO2 (racemic) .
Reply: 104%

* * *

tested on: ACHN; assay: Growth inhibition of human ACHN cells assessed as growth percentage at 10 uM incubated for 48 hrs by sulforhodamine B assay relative to control; format: functional; settings: read-out: Activity
property: growth at 10 µM (%)
Please respond with the number in % and leave the unit unwritten.

Recorded growth at 10 µM, per entry:
* COCCOC(=O)C1=C(C)NC(=S)N(C(C)=O)C1c1ccc2c(c1)OCO2 (racemic) | 102
* CC1=C(C(=O)c2ccccc2)C(c2ccc3c(c2)OCO3)NC(=O)N1 (racemic) | 108

Ask: Specify measured growth at 10 µM for CC(=O)N1C(=S)NC(C)=C(C(=O)OC(C)C)C1c1ccc2c(c1)OCO2 (racemic) .
Reply: 106

Ask: Specify measured growth at 10 µM for COCCOC(=O)C1=C(C)NC(=O)NC1c1ccc2c(c1)OCO2 (racemic) .
Reply: 107

Ask: Specify measured growth at 10 µM for CC1=C(C(=O)OCc2ccccc2)C(c2ccc3c(c2)OCO3)NC(=S)N1 (racemic) .
Reply: 98.9

Ask: Specify measured growth at 10 µM for O=C1NC2=C(C(=O)c3ccccc32)C(c2ccc3c(c2)OCO3)N1 (racemic) .
Reply: 104

Ask: Specify measured growth at 10 µM for CC(=O)C1=C(C)Nc2nc3ccccc3n2C1c1ccc2c(c1)OCO2 (racemic) .
Reply: 110

Ask: Specify measured growth at 10 µM for CC(=O)C1=C(C)NC(=O)NC1c1ccc2c(c1)OCO2 (racemic) .
Reply: 108

* * *

tested on: M14; experiment: Growth inhibition of human M14 cells assessed as growth percentage at 10 uM incubated for 48 hrs by sulforhodamine B assay relative to control; type: functional; conditions: M14, 48 h, read-out: Activity
property: growth at 10 µM

Recorded growth at 10 µM, per entry:
* CC(=O)N1C(=S)NC(C)=C(C(=O)OC(C)C)C1c1ccc2c(c1)OCO2 (racemic) | 96.8%
* CC1=C(C(=O)OCc2ccccc2)C(c2ccc3c(c2)OCO3)NC(=O)N1 (racemic) | 97.4%
* O=C1C2=C(NC(=S)NC2c2ccc3c(c2)OCO3)c2ccccc21 (racemic) | 110%
* CC1=C(C(=O)OC(C)C)C(c2ccc3c(c2)OCO3)NC(=S)N1 (racemic) | 99%
* CC(=O)N1C(=S)NC(C)=C(C(=O)OCc2ccccc2)C1c1ccc2c(c1)OCO2 (racemic) | 54%
* COCCOC(=O)C1=C(C)NC(=S)NC1c1ccc2c(c1)OCO2 (racemic) | 104%

Ask: Specify measured growth at 10 µM for CC(=O)C1=C(C)NC(=O)NC1c1ccc2c(c1)OCO2 (racemic) .
Reply: 104%

Ask: Specify measured growth at 10 µM for CC1(C)CC(=O)C2=C(C1)NC(=O)NC2c1ccc2c(c1)OCO2 (racemic) .
Reply: 102%

Ask: Specify measured growth at 10 µM for CC1=C(C(=O)OCc2ccccc2)C(c2ccc3c(c2)OCO3)n2c(nc3ccccc32)N1 (racemic) .
Reply: 28.1 to 35%

* * *

In this section we review reported viability at 48 h, 6.25 ug values for a set of compounds.
test: Growth inhibition of human HEK293 cells assessed as cell viability at 6.25 ug incubated for 48 hrs by MTT assay relative to control; assay type: cell-based; conditions: read-out: Activity
Please respond with the number in % and leave the unit unwritten.

• CC(=O)N1C(=S)NC(C)=C(C(=O)OCc2ccccc2)C1c1ccc2c(c1)OCO2 (racemic) = 61.3
• CC1(C)CC(=O)C2=C(C1)NC(=O)NC2c1ccc2c(c1)OCO2 (racemic) = 60.1
• COc1cccc2c1C(=O)c1c(O)c3c(c(O)c1C2=O)C[C@@](O)(C(=O)CO)C[C@@H]3O[C@H]1C[C@H](N)[C@H](O)[C@H](C)O1 = 55.2
• CC1=C(C(=O)c2ccccc2)C(c2ccc3c(c2)OCO3)NC(=S)N1 (racemic) = 69.9
• CC1=C(C(=O)OCc2ccccc2)C(c2ccc3c(c2)OCO3)n2c(nc3ccccc32)N1 (racemic) = 58.7

Ask: Specify measured viability at 48 h, 6.25 ug for CC(=O)C1=C(C)Nc2nc3ccccc3n2C1c1ccc2c(c1)OCO2 (racemic) .
Reply: 59

* * *

tested on: MCF7; experiment: Growth inhibition of human MCF7 cells assessed as growth percentage at 10 uM incubated for 48 hrs by sulforhodamine B assay relative to control; format: functional; conditions: MCF7, 48 h, read-out: Activity
property: growth at 10 µM (%)
Please respond with the number in % and leave the unit unwritten.

Recorded growth at 10 µM, per entry:
- O=C1C2=C(NC(=S)NC2c2ccc3c(c2)OCO3)c2ccccc21 (racemic): 96.8
- CC(=O)C1=C(C)NC(=S)NC1c1ccc2c(c1)OCO2 (racemic): 103
- CC1=C(C(=O)OCC(C)C)C(c2ccc3c(c2)OCO3)NC(=S)N1 (racemic): 98.6

Continue with the compound presented below.
Ask: Specify measured growth at 10 µM for CC(=O)C1=C(C)Nc2nc3ccccc3n2C1c1ccc2c(c1)OCO2 (racemic) .
Reply: 96.4

* * *

system: MDA-MB-468; assay: Growth inhibition of human MDA-MB-468 cells assessed as growth percentage at 10 uM incubated for 48 hrs by sulforhodamine B assay relative to control; format: functional; settings: MDA-MB-468, 48 h, read-out: Activity
property: growth at 10 µM (%)
Please respond with the number in % and leave the unit unwritten.

Recorded growth at 10 µM, per entry:
* CC1=C(C(=O)c2ccccc2)C(c2ccc3c(c2)OCO3)NC(=S)N1 (racemic) | 54.3
* O=C1NC2=C(C(=O)c3ccccc32)C(c2ccc3c(c2)OCO3)N1 (racemic) | 114
* COCCOC(=O)C1=C(C)NC(=O)NC1c1ccc2c(c1)OCO2 (racemic) | 106

Continue with the compound presented below.
Ask: Provide the reported growth at 10 µM (system: MDA-MB-468) for CC1=C(C(=O)c2ccccc2)C(c2ccc3c(c2)OCO3)NC(=O)N1 (racemic)
Reply: 109

* * *

test system: U-251; assay: Growth inhibition of human U251 cells assessed as growth percentage at 10 uM incubated for 48 hrs by sulforhodamine B assay relative to control; assay type: functional; settings: U-251, 48 h, read-out: Activity
property: growth at 10 µM (%)
Please respond with the number in % and leave the unit unwritten.

Recorded growth at 10 µM, per entry:
- CC(=O)N1C(=S)NC(C)=C(C(=O)OCC(C)C)C1c1ccc2c(c1)OCO2 (racemic): 87.5
- CC(=O)N1C(=S)NC(C)=C(C(=O)OCc2ccccc2)C1c1ccc2c(c1)OCO2 (racemic): 58.2
- CC1=C(C(=O)OCc2ccccc2)C(c2ccc3c(c2)OCO3)NC(=O)N1 (racemic): 99.5
- CC1=C(C(=O)OCc2ccccc2)C(c2ccc3c(c2)OCO3)NC(=S)N1 (racemic): 95.8
- CC1(C)CC(=O)C2=C(C1)NC(=O)NC2c1ccc2c(c1)OCO2 (racemic): 103
- COCCOC(=O)C1=C(C)NC(=O)NC1c1ccc2c(c1)OCO2 (racemic): 98.3
- O=C1NC2=C(C(=O)c3ccccc32)C(c2ccc3c(c2)OCO3)N1 (racemic): 100
- CC1=C(C(=O)OC(C)C)C(c2ccc3c(c2)OCO3)NC(=O)N1 (racemic): 100

Continue with the compound presented below.
Ask: Specify measured growth at 10 µM for CC(=O)N1C(=S)NC(C)=C(C(=O)OC(C)C)C1c1ccc2c(c1)OCO2 (racemic) .
Reply: 92.6

* * *

test system: NCI-H522; test: Growth inhibition of human NCI-H522 cells assessed as growth percentage at 10 uM incubated for 48 hrs by sulforhodamine B assay relative to control; type: functional; details: NCI-H522, 48 h, read-out: Activity
Threshold rule: growth at 10 µM greater than or equal to 80% is YES; below that, NO.

These recorded examples may help you get a feel for the data.
• CC1=C(C(=O)OC(C)C)C(c2ccc3c(c2)OCO3)NC(=S)N1 (racemic) = YES
• COCCOC(=O)C1=C(C)NC(=S)NC1c1ccc2c(c1)OCO2 (racemic) = YES
• CC1=C(C(=O)OC(C)C)C(c2ccc3c(c2)OCO3)NC(=O)N1 (racemic) = YES
• CC(=O)C1=C(C)NC(=S)NC1c1ccc2c(c1)OCO2 (racemic) = YES
• CC(=O)N1C(=S)NC(C)=C(C(=O)OCC(C)C)C1c1ccc2c(c1)OCO2 (racemic) = NO

Ask: Decide: growth at 10 µM of CC1=C(C(=O)c2ccccc2)C(c2ccc3c(c2)OCO3)NC(=S)N1 (racemic) >= 80%?
Reply: NO

Ask: Decide: growth at 10 µM of CC(=O)C1=C(C)Nc2nc3ccccc3n2C1c1ccc2c(c1)OCO2 (racemic) >= 80%?
Reply: NO
